protocol-summary: Apparent oral clearance in Sprague-Dawley rat at 3 mg/kg, iv measured upto 24 hrs by UPLC/MS/MS analysis
Assay type: ADME, organism-based
setup-conditions: in vivo
measured-property: CL/F (mL/min/kg)
Reply numerically in mL/min/kg, unit not repeated.

INPUT: Could you tell me which CL/F is on file for COc1cc2c(cc1OC)C(Cc1ccc(OC)c(OCc3ccccc3)c1)N(C)CC2 (stereo unspecified) ?
OUTPUT: 18.3

---

protocol-summary: Tmax in Sprague-Dawley rat at 30 mg/kg, po measured upto 24 hrs by UPLC/MS/MS analysis
Format: ADME, organism-based
setup-conditions: in vivo
measured-property: Tmax (min)
Reply numerically in min, unit not repeated.

INPUT: Could you tell me which Tmax is on file for COc1cc2c(cc1OC)C(Cc1ccc(OC)c(OCc3ccccc3)c1)N(C)CC2 (stereo unspecified) ?
OUTPUT: 22.8

---

protocol-summary: Half life in Sprague-Dawley rat at 30 mg/kg, po measured upto 24 hrs by UPLC/MS/MS analysis
Format: ADME, organism-based
setup-conditions: in vivo
measured-property: half-life
Please append the unit to your numeric answer.

INPUT: Could you tell me which half-life is on file for COc1cc2c(cc1OC)C(Cc1ccc(OC)c(OCc3ccccc3)c1)N(C)CC2 (stereo unspecified) ?
OUTPUT: 7.37 h

---

protocol-summary: Cytotoxicity against human LX2 cells incubated for 48 hrs by CCK-8 method
Format: toxicity, cell-based, LX-2
measured-property: IC50 at 48 h

INPUT: Could you tell me which IC50 at 48 h is on file for COc1cc2c(cc1OC)C(Cc1ccc(OC)c(OCc3ccccc3)c1)N(C)CC2 (stereo unspecified) ?
OUTPUT: > 50 µM

---

protocol-summary: MRT (0 to infinity) in Sprague-Dawley rat at 3 mg/kg, iv measured upto 24 hrs by UPLC/MS/MS analysis
Assay type: ADME, organism-based
setup-conditions: in vivo
measured-property: MRT inf (h)
Reply numerically in h, unit not repeated.

INPUT: Could you tell me which MRT inf is on file for COc1cc2c(cc1OC)C(Cc1ccc(OC)c(OCc3ccccc3)c1)N(C)CC2 (stereo unspecified) ?
OUTPUT: 2.68

---

protocol-summary: Cmax in Sprague-Dawley rat at 3 mg/kg, iv measured upto 24 hrs by UPLC/MS/MS analysis
Assay type: ADME, organism-based
Design: time < 24 hrs, dose 3 mg/kg, route iv
setup-conditions: in vivo
measured-property: Cmax (ng/mL)
Reply numerically in ng/mL, unit not repeated.

INPUT: Could you tell me which Cmax is on file for COc1cc2c(cc1OC)C(Cc1ccc(OC)c(OCc3ccccc3)c1)N(C)CC2 (stereo unspecified) ?
OUTPUT: 1570

---

protocol-summary: Oral bioavailability in Sprague-Dawley rat at 30 mg/kg measured upto 24 hrs by UPLC/MS/MS analysis
Type: ADME, organism-based
setup-conditions: in vivo
measured-property: bioavailability (%)
Reply numerically in %, unit not repeated.

INPUT: Could you tell me which bioavailability is on file for COc1cc2c(cc1OC)C(Cc1ccc(OC)c(OCc3ccccc3)c1)N(C)CC2 (stereo unspecified) ?
OUTPUT: 7.65

---

protocol-summary: Half life in Sprague-Dawley rat at 3 mg/kg, iv measured upto 24 hrs by UPLC/MS/MS analysis
Format: ADME, organism-based
setup-conditions: in vivo
measured-property: half-life (h)
Reply numerically in h, unit not repeated.

INPUT: Could you tell me which half-life is on file for COc1cc2c(cc1OC)C(Cc1ccc(OC)c(OCc3ccccc3)c1)N(C)CC2 (stereo unspecified) ?
OUTPUT: 8.43

---

protocol-summary: Cmax in Sprague-Dawley rat at 30 mg/kg, po measured upto 24 hrs by UPLC/MS/MS analysis
Format: ADME, organism-based
Parameters: time < 24 hrs, dose 30 mg/kg, route po
setup-conditions: in vivo
measured-property: Cmax (ng/mL)
Reply numerically in ng/mL, unit not repeated.

INPUT: Could you tell me which Cmax is on file for COc1cc2c(cc1OC)C(Cc1ccc(OC)c(OCc3ccccc3)c1)N(C)CC2 (stereo unspecified) ?
OUTPUT: 637

---

protocol-summary: Terminal elimination half life in Sprague-Dawley rat at 3 mg/kg, iv measured upto 24 hrs by UPLC/MS/MS analysis
Type: ADME, organism-based
setup-conditions: in vivo, read-out: LambdaZ (converted)
measured-property: k el at 24 h (s⁻¹)
Reply numerically in s⁻¹, unit not repeated.

INPUT: Could you tell me which k el at 24 h is on file for COc1cc2c(cc1OC)C(Cc1ccc(OC)c(OCc3ccccc3)c1)N(C)CC2 (stereo unspecified) ?
OUTPUT: 4.17e-05

---

protocol-summary: Terminal elimination half life in Sprague-Dawley rat at 30 mg/kg, po measured upto 24 hrs by UPLC/MS/MS analysis
Type: ADME, organism-based
setup-conditions: in vivo, read-out: LambdaZ (converted)
measured-property: k el at 24 h (s⁻¹)
Reply numerically in s⁻¹, unit not repeated.

INPUT: Could you tell me which k el at 24 h is on file for COc1cc2c(cc1OC)C(Cc1ccc(OC)c(OCc3ccccc3)c1)N(C)CC2 (stereo unspecified) ?
OUTPUT: 3.33e-05

---

protocol-summary: MRT (0 to infinity) in Sprague-Dawley rat at 30 mg/kg, po measured upto 24 hrs by UPLC/MS/MS analysis
Type: ADME, organism-based
setup-conditions: in vivo
measured-property: MRT inf (h)
Reply numerically in h, unit not repeated.

INPUT: Could you tell me which MRT inf is on file for COc1cc2c(cc1OC)C(Cc1ccc(OC)c(OCc3ccccc3)c1)N(C)CC2 (stereo unspecified) ?
OUTPUT: 4.89
